Assay: clinical
Conditions: human, in vivo, po, 240 mg/m2, Cmax
VALUE KIND: Cmax (ng/mL)

>>> test_value("CCc1c2c(nc3ccc(OC(=O)N4CCC(N5CCCCC5)CC4)cc13)-c1cc3c(c(=O)n1C2)COC(=O)[C@]3(O)CC [oral irinotecan, reference compound]")
668

* * *

Experiment: clinical
Conditions: human, in vivo, 10 mg/m2, Cmax
VALUE KIND: Cmax (ng/mL)

>>> test_value("CCc1c2c(nc3ccc(OC(=O)N4CCC(N5CCCCC5)CC4)cc13)-c1cc3c(c(=O)n1C2)COC(=O)[C@]3(O)CC [oral irinotecan, reference compound]")
14

Values were extracted from patent US11752139B2.
